System: CD2F1 mice, L1210 leukemia ip, survival T/C
Assay: NCI In Vivo Anticancer Drug Screen. Data for tumor model L1210 Leukemia (intraperitoneal) in CD2F1 (CDF1) mice
Details: endpoint: mean survival time; dose: 100.0 mg/kg/injection; schedule: Q01DX005 (ip); vehicle: distilled water + Tween-80; higher = longer survival
Inconclusive results and toxic doses are left out.
ASSAY READOUT: T/C

Q. Specify T/C for CN(C)c1nc2c(c(=O)n(C)c(=O)n2C)n1C and stop.
A. 88 % of control

Q. Please give the documented T/C of CC(=O)OCC1OC(n2cnc3c(NC(=O)c4ccccc4)ncnc32)C(OC(C)=O)C1OC(C)=O (centres undefined)
A. 94 % of control

Q. Please look at this molecule and report its T/C: O=c1[nH]c(=O)n(C2CC(O)C(CO)O2)cc1-c1ccccc1 (centres undefined)
A. 95 % of control

Q. Using the record for NC(=O)c1ncn(C2CC3[O][Sn]([c]4ccccc4)([c]4ccccc4)[O]CC3O2)n1 (centres undefined) , state its measured T/C.
A. 88 % of control
